The origin of these recorded values is ChEMBL document CHEMBL1137618.

- SUBJECT OF TEST: Neuronal acetylcholine receptor; alpha3/beta4 (Homo sapiens, UniProt P30926+P32297)
- Sequence (P30926 whole entry): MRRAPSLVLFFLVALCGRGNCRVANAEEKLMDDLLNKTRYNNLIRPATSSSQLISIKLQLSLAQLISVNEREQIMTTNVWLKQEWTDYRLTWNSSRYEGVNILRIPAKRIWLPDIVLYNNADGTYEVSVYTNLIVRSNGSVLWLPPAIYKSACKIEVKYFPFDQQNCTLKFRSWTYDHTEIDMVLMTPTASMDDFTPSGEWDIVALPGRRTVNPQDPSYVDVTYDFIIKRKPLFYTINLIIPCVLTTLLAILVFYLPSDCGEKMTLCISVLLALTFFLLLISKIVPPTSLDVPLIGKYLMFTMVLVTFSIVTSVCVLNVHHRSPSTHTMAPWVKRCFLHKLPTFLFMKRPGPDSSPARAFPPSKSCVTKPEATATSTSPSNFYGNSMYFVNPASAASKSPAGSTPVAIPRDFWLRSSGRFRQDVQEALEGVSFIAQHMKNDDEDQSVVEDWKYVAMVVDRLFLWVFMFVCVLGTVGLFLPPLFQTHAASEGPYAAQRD
- Sequence (P32297 whole entry): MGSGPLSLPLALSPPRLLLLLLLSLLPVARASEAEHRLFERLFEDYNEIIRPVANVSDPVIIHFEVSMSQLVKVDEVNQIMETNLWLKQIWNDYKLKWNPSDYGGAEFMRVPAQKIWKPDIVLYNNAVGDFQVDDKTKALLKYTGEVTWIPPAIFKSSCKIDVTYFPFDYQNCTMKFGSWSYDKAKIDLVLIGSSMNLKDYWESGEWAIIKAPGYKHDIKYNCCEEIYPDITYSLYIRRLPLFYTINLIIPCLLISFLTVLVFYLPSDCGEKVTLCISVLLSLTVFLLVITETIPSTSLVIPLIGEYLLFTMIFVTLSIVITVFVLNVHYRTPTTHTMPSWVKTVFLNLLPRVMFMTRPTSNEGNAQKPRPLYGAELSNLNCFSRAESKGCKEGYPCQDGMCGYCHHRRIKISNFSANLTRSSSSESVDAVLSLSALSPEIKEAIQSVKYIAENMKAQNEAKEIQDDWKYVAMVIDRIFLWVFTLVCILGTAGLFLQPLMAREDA
- TEST: Agonist activity at recombinant human alpha3beta4 nAChR expressed in HEK293 cells assessed as induction of calcium influx by FLIPR assay relative to nicotine
- Format: functional, cell-based
Examples of compounds with documented Activity follow.
Enter your answer as a number in %; do not include the unit.

Would you please look over these solved cases?
Clc1cc(N2C[C@H]3CN[C@H]3C2)cnc1Cl 98
Clc1cc(N2C[C@@H]3CNC[C@@H]32)cnc1Cl 87
c1cncc(N2C[C@@H]3CNC[C@@H]32)c1 97

Query compound follows.
Dear colleague, I am looking for the recorded Activity of the following compound: N#Cc1cc(N2C[C@H]3CNC[C@H]32)cnc1Br 95

###

Some compounds, each annotated with its measured EC50.
- SUBJECT OF TEST: Neuronal acetylcholine receptor; alpha3/beta4 (Homo sapiens, UniProt P30926+P32297)
- TEST: Agonist activity at recombinant human alpha-3-beta-4 nAChR expressed in HEK293 cells assessed as induction of calcium influx by FLIPR assay
- Format: functional, cell-based
- CONDITION NOTES: read-out: EC50
// note: answer is a bare numeric in nM

Solved cases below.
COc1cncc(N2C[C@H]3CN[C@H]3C2)c1 1000
Cc1cc(N2C[C@@H]3CN[C@@H]3C2)cnc1Cl 700
Clc1ccc(N2C[C@H]3CN[C@H]3C2)cn1 400
Brc1cncc(N2C[C@@H]3CNC[C@@H]32)c1 6600
COc1cc(N2C[C@H]3CNC[C@H]32)cnc1Br 1800

Field request: EC50 | item: Cc1ncc(N2C[C@H]3CNC[C@H]32)cc1C#N 2100

Also Clc1cc(N2C[C@H]3CNC[C@H]32)cnc1Cl ? 1000

What do you have for Cc1cc(N2C[C@@H]3CNC[C@@H]32)cnc1Cl ? 2200

Next entry: Cc1cc(N2C[C@H]3CN[C@H]3C2)cnc1C 3300

Then this compound: N#Cc1cncc(N2C[C@@H]3CNC[C@@H]32)c1 13700

###

Parameter Activity: see the listing below.
- SUBJECT OF TEST: Neuronal acetylcholine receptor; alpha4/beta2 (Homo sapiens, UniProt P17787+P43681)
- TEST: Agonist activity at recombinant human alpha-4-beta-2 nAChR expressed in HEK293 cells assessed as induction of calcium influx by FLIPR assay relative to nicotine
- Format: functional, cell-based
All answers are understood in %, so give the number only.

Some entries whose results are on file:
Clc1ccc(N2C[C@@H]3CNC[C@@H]32)cn1 107
Brc1cncc(N2C[C@@H]3CN[C@@H]3C2)c1 53
Brc1cncc(N2C[C@@H]3CNC[C@@H]32)c1 20
Cc1ncc(N2C[C@@H]3CN[C@@H]3C2)cc1C#N 119
c1cncc(N2C[C@@H]3CN[C@@H]3C2)c1 122
Cc1cc(N2C[C@@H]3CNC[C@@H]32)cnc1Cl 134
Cc1cc(N2C[C@H]3CN[C@H]3C2)cnc1Cl 228
Cc1cc(N2C[C@H]3CN[C@H]3C2)cnc1C 124

For Neuronal acetylcholine receptor; alpha4/beta2 (Homo sapiens, UniProt P17787+P43681), provide Activity of c1cncc(N2C[C@H]3CNC[C@H]32)c1 please. 116

Likewise for N#Cc1cncc(N2C[C@@H]3CN[C@@H]3C2)c1 ? 102
